system.name: T1, monovalent human TrkA extracellular region (human, UniProt P04629 33-423)
T1 construct: also called recombinant monovalent human TrkA extracellular domain
assay.protocol: SPR (BIAcore 2000), antibody captured via Fc, monovalent TrkA extracellular region as analyte
metric.name: pKd
Please report pKd as the negative decimal logarithm of the molar concentration, giving only the number.

Ask: Fill in the blank: the reported pKd of GBR VH1(V37A)VL1 (antibody, human IgG1, kappa, V domains shown, IGHG1, kappa) VH: EVQLLESGGGLVQPGGSLRLSCAASGFTFSTYTMSWARQAPGKGLEWVSYISKGGGSTYYPDTVKGRFTISRDNSKNTLYLQMNSLRAEDTAVYYCAKGAMYGNDFFYPMDYWGQGTTVTVSS VL: EIVLTQSPATLSLSPGERATLSCSASSSVSYMHWYQQKPGQAPRLLIYTTSNLASGIPARFSGSGSGTDFTLTISSLEPEDFAVYYCHQWSSYPWTFGQGTKLEIKR is ____.
Result: 6.47

Ask: Fill in the blank: the reported pKd of BXhVH3VL3 (antibody, human IgG1, kappa, V domains shown, IGHG1, kappa) VH: EVQLLESGGGLVQPGGSLRLSCAASGFTFSTYTMSWVRQTPGKRLEWVAYISKGGGSTYYPDTVKGRFTISRDNSKNTLYLQMNSLRAEDTAVYYCAKGAMYGNDFFYPMDYWGQGTTVTVSS VL: QIVLTQSPATLSLSPGERATLSCSASSSVSYMHWYQQKPGQSPRLLIYTTSNLASGIPSRFSGSGSGTFYTLTISSLEPEDFAVYYCHQWSSYPWTFGGGTKLEIKR is ____.
Result: 6.87

Measured values drawn from patent US20170362327A1 for this set.
